// provenance: PubChem BioAssay

biological target: Voltage-gated potassium channel subunit beta-2 (Rattus norvegicus) (UniProt P62483); assay: KvBeta enzyme negative modulators, primary screen, biochemical, NADPH fluorescence (AID 622); details: recombinant KvBeta, 4-cyanobenzaldehyde reduction, at 10 µM, hits give high values;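 further: slope of raw intensity against log time taken from 70 to 1610 s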
Sequence (P62483 whole entry, looked up): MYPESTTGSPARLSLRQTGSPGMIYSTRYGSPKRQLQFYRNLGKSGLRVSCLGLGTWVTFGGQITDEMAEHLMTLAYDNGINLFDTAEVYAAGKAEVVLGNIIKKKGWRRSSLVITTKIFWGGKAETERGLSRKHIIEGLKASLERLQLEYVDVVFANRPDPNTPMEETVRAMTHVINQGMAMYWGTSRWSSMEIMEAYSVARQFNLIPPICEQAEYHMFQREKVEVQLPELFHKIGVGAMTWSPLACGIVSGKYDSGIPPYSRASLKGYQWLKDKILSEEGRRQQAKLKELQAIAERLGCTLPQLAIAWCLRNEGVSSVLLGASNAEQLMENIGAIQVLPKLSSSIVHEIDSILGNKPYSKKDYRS
fluorescence slope vs -0.5: at or above is TRUE, below is FALSE.

INSERT INTO assay_data (molecule, classlabel) VALUES
  ('N#CC1=C(N)N(c2ccc(Oc3ccccc3)cc2)C(=O)C1', 'TRUE'),
  ('COc1cccc(C(=O)Nc2ccc(-c3nnc(-c4ccco4)o3)cc2)c1', 'TRUE'),
  ('Cc1ccc(-c2nn(C)c(=O)c3ccccc23)cc1S(=O)(=O)NCCN1CCOCC1', 'TRUE'),
  ('CC(C)c1nc(N2CCOCC2)c(C#N)c2c1COC(C)(C)C2', 'TRUE'),
  ('COCC(C)Nc1ncnc2c1cnn2-c1ccc(Cl)cc1 (stereo not drawn)', 'TRUE'),
  ('Cc1cc2c(c(=O)o1)C(CC(C)C)C(C#N)=C(N)O2 (stereo not drawn)', 'TRUE'),
  ('COc1ccc(-c2oc3ncn(CCN4CCOCC4)c(=N)c3c2-c2ccc(OC)cc2)cc1', 'TRUE'),
  ('CCCn1c(SCC(=O)Nc2ccccc2C(=O)OC)nc2c1c(=O)n(C)c(=O)n2C', 'TRUE'),
  ('O=c1c[n+]([O-])c2ccccc2n1OCc1c(F)cccc1F', 'TRUE'),
  ('O=C(CSc1nnnn1-c1ccccc1Cl)Nc1ccc2c(c1)OCCO2', 'FALSE'),
  ('N#Cc1c(NCCCO)nc(-c2ccccc2)c2c1CCCC2', 'TRUE'),
  ('CC(=O)Nc1sc2c(c1CN1CCN(c3ccccn3)CC1)CCCC2', 'FALSE'),
  ('CC(=O)c1cccc(-n2nnnc2SCC(=O)N2CCCC2)c1', 'TRUE'),
  ('CCC(C)Nc1nc(OC)nc(N(C)C#N)n1 (stereo not drawn)', 'TRUE'),
  ('O=C1c2ccccc2C(=O)N1CC(O)Cn1nnc2ccccc21 (stereo not drawn)', 'FALSE'),
  ('Cc1ccc(-n2ncc3c(NCc4ccc5c(c4)OCO5)ncnc32)c(C)c1', 'TRUE'),
  ('Cc1ccc(Cn2c(SCCN3CCCCC3)nc3c2c(=O)[nH]c(=O)n3C)cc1', 'FALSE'),
  ('CCS(=O)(=O)N1CCC(C(=O)NCCc2ccc(C)cc2)CC1', 'FALSE'),
  ('Cc1cc(C)c(NC(=O)CSc2nnc(-c3ccncc3)n2Cc2ccco2)c(C)c1', 'TRUE'),
  ('CN(C)c1ccc(-c2nn3c(-c4ccc(Cl)cc4Cl)nnc3s2)cc1', 'FALSE'),
  ('Cn1c(=O)n(Cc2ccc(F)cc2)c(=O)c2c1nc1n2CCCN1Cc1ccccc1', 'TRUE'),
  ('Cc1cc(C)c2c(=O)n(CC(=O)NCCCN3CCN(c4ccccc4F)CC3)sc2n1', 'FALSE'),
  ('COc1ccc(C(=O)Nc2ccccc2C(=O)NCCN2CCOCC2)cc1', 'TRUE'),
  ('Cc1ccccc1-n1c(=O)cc(N2CCN(C(=O)c3ccco3)CC2)[nH]c1=O', 'FALSE'),
  ('O=C1CCCN1CCCNc1ncnc2c1[nH]c1ccc(Cl)cc12', 'TRUE'),
  ('CCOC(=O)NC(Nc1sc2c(c1C(N)=O)CCCC2)(C(=O)OCC)C(F)(F)F (stereo not drawn)', 'TRUE'),
  ('Cc1nnc(SCc2nc3ccccc3s2)n1-c1ccccc1', 'TRUE'),
  ('CN1CC2(C)CN(C(c3ccccc3)c3ccccc3)CC(C)(C1)C2O (stereo not drawn)', 'TRUE'),
  ('C=CCNc1nc(N2CCCCC2)c(C#N)c2c1CN(Cc1ccccc1)CC2', 'TRUE'),
  ('Nc1nc2n(n1)C(c1cccs1)CC(c1ccc(F)cc1)N2 (stereo not drawn)', 'TRUE'),
  ('CCOCCCNC(=O)C(NC(=O)c1ccccn1)c1ccc(C)cc1 (stereo not drawn)', 'FALSE'),
  ('CCCCCn1c(CN2CCN(C(=O)c3ccco3)CC2)nc2c1c(=O)n(C)c(=O)n2C', 'FALSE'),
  ('O=C(NCC(c1cccnc1)N1CCN(c2ccccc2)CC1)c1ccc2c(c1)OCO2 (stereo not drawn)', 'FALSE'),
  ('CCOC(=O)C1=C(C)NC(=O)C1CC(=O)Nc1ccccc1 (stereo not drawn)', 'TRUE'),
  ('CC(=O)N(C)C1(c2nnnn2CCOC(=O)Nc2cccc3ccccc23)CCCC1', 'FALSE'),
  ('CNC(=O)CCn1nc(-c2ccccc2)c2ccccc2c1=O', 'TRUE'),
  ('CC(=O)Nc1ccc(N=Cc2nc(-c3ccc(C)cc3)oc2O)cc1', 'TRUE'),
  ('CCOC(=O)c1c(N)sc(C(=O)N2CCOCC2)c1C', 'TRUE'),
  ('CCOC(=O)c1ccc(COC(=O)c2cc3ccccc3oc2=O)o1', 'TRUE');
